Sourced from paper PMC10397247

Molecular target: T1, 4H235-bA
T1 chain: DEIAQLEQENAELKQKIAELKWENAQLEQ
Experiment: two-hybrid library CCNG1;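 further: natural log of median RNA to DNA barcode read ratio; higher means stronger binding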
observable: interaction score

// solved cases for interaction score follow
> print(dat)
                                     binder         observable  readout.value
1  DKIAQLEQENAELKQEIAELKWKIAQLEQ [4H2253-bA]  interaction score          0.641
2  DEIAQLEQENAELEQKIAELEWKIAQLKQ [4H166-bA]  interaction score          0.308

A: DKIAQLEQEIAELKQKNAELEWEIAQLKQ [4H2162-bA]
B: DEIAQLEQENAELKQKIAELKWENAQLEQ [4H235-bA]
C: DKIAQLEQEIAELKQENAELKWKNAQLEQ [4H2143-bA]
D: DKIAQLEQENAELEQKNAELKWEIAQLEQ [4H2233-bA]
Enquiry: Sort the binders on interaction score; start with the lowest figure. Please, when replying, give the labels in the order that was requested.
Return: C, D, B, A
